src = PubChem BioAssay

system: TRPC4 (mouse), co-expressed with 5HT1a in HEK293; assay: enhancement of serotonin-evoked TRPC4 response – cell-based, second counter screen, HEK293 TRPC4/5HT1a, Fluo-4, counter-screen for TRPC4 potentiator project, confirmation (AID 434979); conditions: Fluo-4 calcium flux, at 10 µM, serotonin added at its EC20 dose
Calls of active or inactive are those of the source.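 Rule for the calls: active = signal rise over 3 SD above mean of control wells given weak agonist, in both repeats and first screen; inactive = the rest.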
Log the outcome using a class from TRUE (active), FALSE (inactive)

>  <Molecule>
COc1ccc(C(=O)Nc2nc(-c3cccs3)cs2)cc1

>  <Cat>
FALSE

$$$$
>  <Molecule>
Cc1noc(C)c1S(=O)(=O)N1CCC(C(=O)NCCCN2CC(C)CC(C)C2)CC1 (stereo not given)

>  <Cat>
FALSE

$$$$

QUERY: Record lookup: outcome of this test for O=C(O)c1ccc(N2CCN(C(c3ccccc3)c3ccccc3)CC2)c([N+](=O)[O-])c1 ?
RESULT: FALSE

QUERY: Cool, now O=C1/C(=C/c2ccccc2Cl)SC(=S)N1CCCC(=O)N(CCO)c1ccccc1
RESULT: FALSE

###

molecular target: Short transient receptor potential channel 6 (Mus musculus) (UniProt Q61143); assay: TRPC6 blockade by TRPC4 inhibitor hits – cell-based, HEK293, membrane potential dye, duplicate, selectivity assay for TRPC4 inhibitor project, confirmation (AID 434948); conditions: HEK293 TRPC6, membrane potential dye fluorescence, at 10 µM, stimulated with maximal-effect acetylcholine
Sequence (Q61143 whole entry, looked up): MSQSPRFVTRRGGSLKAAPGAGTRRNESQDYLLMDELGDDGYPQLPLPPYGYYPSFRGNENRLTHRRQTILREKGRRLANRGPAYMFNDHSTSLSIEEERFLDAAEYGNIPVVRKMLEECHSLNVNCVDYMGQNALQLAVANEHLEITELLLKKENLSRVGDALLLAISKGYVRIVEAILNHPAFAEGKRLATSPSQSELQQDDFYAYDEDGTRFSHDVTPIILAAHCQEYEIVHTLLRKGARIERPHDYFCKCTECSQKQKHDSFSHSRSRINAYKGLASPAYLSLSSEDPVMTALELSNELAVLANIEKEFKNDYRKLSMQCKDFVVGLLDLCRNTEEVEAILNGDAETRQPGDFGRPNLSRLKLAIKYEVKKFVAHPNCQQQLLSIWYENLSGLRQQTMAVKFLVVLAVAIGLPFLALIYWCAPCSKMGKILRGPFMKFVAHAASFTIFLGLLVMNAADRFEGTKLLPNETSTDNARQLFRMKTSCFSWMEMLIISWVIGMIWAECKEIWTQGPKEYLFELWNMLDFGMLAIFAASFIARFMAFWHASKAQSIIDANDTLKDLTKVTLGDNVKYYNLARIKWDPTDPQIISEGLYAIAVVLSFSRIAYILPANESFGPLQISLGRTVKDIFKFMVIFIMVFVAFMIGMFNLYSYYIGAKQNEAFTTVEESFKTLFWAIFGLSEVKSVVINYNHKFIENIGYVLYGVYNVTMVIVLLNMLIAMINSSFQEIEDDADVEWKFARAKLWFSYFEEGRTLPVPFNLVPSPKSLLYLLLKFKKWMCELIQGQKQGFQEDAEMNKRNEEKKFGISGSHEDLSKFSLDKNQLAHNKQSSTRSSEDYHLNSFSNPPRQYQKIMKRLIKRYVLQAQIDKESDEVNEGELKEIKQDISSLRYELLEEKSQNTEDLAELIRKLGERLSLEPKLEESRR
Active and inactive are the calls of the source.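 How the source made its calls: active means active in primary screen and both duplicates, each dropping signal beyond three positive-control SD with fluorescence still positive; inactive means the rest.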
A correct response names exactly one class from 1.0 for active, 0.0 for inactive

Worked cases, answers included:
>  <Molecule>
COc1cc(C2c3c(-c4ccccc4)n[nH]c3C(=O)N2c2ccccc2)ccc1O (configuration not stated)

>  <Cat>
0.0

$$$$
>  <Molecule>
C1CCN(c2nc(N3CCCC3)nc(N3CCNCC3)n2)C1

>  <Cat>
0.0

$$$$
>  <Molecule>
C=CCc1ccccc1OCC(CN1CCCCC1)OC(C)=O (configuration not stated)

>  <Cat>
0.0

$$$$
>  <Molecule>
Cc1ccc(-c2csc3ncnc(NCCN4CCOCC4)c23)cc1

>  <Cat>
0.0

$$$$

QUERY: What did this assay record as the result for O=c1oc2ccccc2c(Nc2ccccc2)c1CN1CCCCC1 ?
RESULT: 0.0

QUERY: Same question for CN1CCN(Cc2nc3ccccc3n2C)CC1CCO (configuration not stated) please.
RESULT: 0.0

QUERY: Next record, please: c1ccc(Nc2n[nH]nc2-c2ccccc2)cc1
RESULT: 0.0

QUERY: And what about the molecule COc1cc2nc(=S)n3[nH]c(CCn4nc(C)cc4C)nc3c2cc1OC ?
RESULT: 0.0

###

system: TRPC4 beta (transient receptor potential cation channel C4), mouse; assay: potentiation of DAMGO EC20 TRPC4 response – cell-based, Fluo-4, HEK293 TRPC4beta/mu-opioid, confirmation (AID 2555); details: DAMGO EC20, Fluo-4 calcium flux, at 10 µM
Calls of active or inactive are those of the source.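 Rule for the calls: active = primary screen hit whose calcium fluorescence ratio, in both repeats, exceeds the weak agonist control mean by 3 SD; inactive = the rest.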
A correct response names exactly one class from active, inactive

>  <Molecule>
COc1ccc(CN2CCN(C(=O)c3ccc(F)cc3)CC2)c(OC)c1

>  <Cat>
inactive

$$$$
>  <Molecule>
Brc1ccc(N/N=C(/N=Nc2nn[nH]n2)c2ccccc2)cc1

>  <Cat>
inactive

$$$$
>  <Molecule>
Cc1cc(OCC(=O)NNC(=S)NC(=O)c2ccc(Br)o2)ccc1Cl

>  <Cat>
active

$$$$
>  <Molecule>
CC1CCN(CCCNS(=O)(=O)c2cc(Br)cc3c2N(C(=O)C2CC2)CC3)CC1

>  <Cat>
inactive

$$$$
>  <Molecule>
CN(C)C(CNC(=O)c1ccccc1OCc1ccc(Cl)cc1)c1ccco1 (configuration not stated)

>  <Cat>
inactive

$$$$
>  <Molecule>
CC(C)C(NC(=O)c1ccc(C(C)(C)C)cc1)C(=O)NCC(c1ccccc1)N(C)C (configuration not stated)

>  <Cat>
inactive

$$$$
>  <Molecule>
O=C1c2ccccc2S(=O)(=O)c2cc(C(=O)N(c3ccccn3)c3ccccn3)ccc21

>  <Cat>
inactive

$$$$
>  <Molecule>
Cc1ccc(C(=O)C[n+]2cccc3cc(C)ccc32)cc1

>  <Cat>
inactive

$$$$
>  <Molecule>
COc1cc(COCC(O)CN2CCN(CCN3C(=O)c4cccc5cccc(c45)C3=O)CC2)cc(OC)c1OC (configuration not stated)

>  <Cat>
inactive

$$$$
>  <Molecule>
c1ccc2c3c([nH]c2c1)CCNC3

>  <Cat>
inactive

$$$$

QUERY: Please share the test call associated with NS(=O)(=O)c1ccc(CCNCc2ccccc2OCc2ccc(Cl)cc2)cc1 .
RESULT: inactive

QUERY: Query O=C1/C(=C\c2cc([N+](=O)[O-])ccc2O)SC(=S)N1Cc1ccc(Cl)cc1 next
RESULT: active

QUERY: And then CN(C)CCCN(C(=O)c1ccc(Cl)s1)c1nc2cc3c(cc2s1)OCO3 , what is it?
RESULT: inactive

QUERY: Thanks! And CCSc1ccccc1C(=O)NCCc1ccccc1 ?
RESULT: inactive

QUERY: Next entry: CCOc1ccccc1N(C(=O)c1snc(C(N)=O)c1N)C(C(=O)NCc1ccccc1)c1ccc(O)cc1 (configuration not stated)
RESULT: inactive

QUERY: Please do the same for Cc1cccn2cc(-c3c[nH]c4ccccc34)nc12 as well.
RESULT: inactive

QUERY: Would you kindly repeat that for CC(=O)N1CCN(c2ccccc2NC(=O)c2cccs2)CC1 ?
RESULT: inactive

QUERY: Another: CC1Oc2ccccc2C=C1/C=N/Nc1ccc(C(=O)O)cc1 (configuration not stated)
RESULT: inactive

###

test system: TRPC4 beta (transient receptor potential cation channel C4), mouse; assay: potentiation of DAMGO EC20 TRPC4 response – cell-based, Fluo-4, HEK293 TRPC4beta/mu-opioid, confirmation (AID 2555); settings: DAMGO EC20, Fluo-4 calcium flux, at 10 µM; active compounds read high
Activity calls are given as the source filed them.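 Rule for the calls: active = primary screen hit whose calcium fluorescence ratio, in both repeats, exceeds the weak agonist control mean by 3 SD; inactive = the rest.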
Endpoint: potentiation

Answered examples (5):
>  <Molecule>
CCCN(CCC)CCNC(=O)CCC(=O)Nc1ccc2nc(N3CCOCC3)cc(C)c2c1

>  <Assay system>
TRPC4 beta (transient receptor potential cation channel C4), mouse

>  <potentiation>
inactive

$$$$
>  <Molecule>
CC(C)c1cccc(OCCCCN(C)C)c1

>  <Assay system>
TRPC4 beta (transient receptor potential cation channel C4), mouse

>  <potentiation>
20% (active)

$$$$
>  <Molecule>
O=C(Nc1ccc(F)cc1)Nc1cc(S(=O)(=O)N2CCOCC2)ccc1N1CCCC1

>  <Assay system>
TRPC4 beta (transient receptor potential cation channel C4), mouse

>  <potentiation>
53% (active)

$$$$
>  <Molecule>
O=C(CSc1nc2ccccc2c(=O)n1CCCO)N1CCc2ccccc21

>  <Assay system>
TRPC4 beta (transient receptor potential cation channel C4), mouse

>  <potentiation>
inactive

$$$$
>  <Molecule>
Cc1cc(Nc2cccc(O)c2)c2ccccc2n1

>  <Assay system>
TRPC4 beta (transient receptor potential cation channel C4), mouse

>  <potentiation>
inactive

$$$$

QUERY: Can you look up the measured potentiation of CC1CCCN(CCCN2C(=O)C3C(C(=O)Nc4ccc(Cl)cc4)C4C=CC3(O4)C2C(=O)NC2CCCCC2)C1 (configuration not stated) for me?
RESULT: inactive

QUERY: Now the same for Cn1c(=O)c2c(nc(SCCN3CCCCC3)n2Cc2ccccc2)n(C)c1=O
RESULT: 36% (active)

QUERY: Also, COC1=C(C)C(O)=C(C(=O)/C=C/c2ccccc2)C(=O)C1(C)C please.
RESULT: inactive

QUERY: Next: Cc1ccc(C(CNS(=O)(=O)c2ccc([N+](=O)[O-])cc2)N2CCN(C)CC2)cc1 (configuration not stated)
RESULT: inactive

QUERY: Likewise for CCOc1ccc(-c2cc(NC(=O)c3c(F)cccc3F)c(C(=O)O)s2)cc1 ?
RESULT: inactive

###

test system: TRPC4 beta (transient receptor potential cation channel C4), mouse; assay: potentiation of DAMGO EC20 TRPC4 response – cell-based, Fluo-4, HEK293 TRPC4beta/mu-opioid, confirmation (AID 2555); conditions: DAMGO EC20, Fluo-4 calcium flux, at 10 µM
Active and inactive are the calls of the source.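 How the source made its calls: active means primary screen hit whose calcium fluorescence ratio, in both repeats, exceeds the weak agonist control mean by 3 SD; inactive means the rest.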
Choose the fitting class; nothing outside 1 (active), -1 (inactive) is accepted.

>  <Molecule>
Cc1cccc(Cn2c(C(C)(C)C)cc3cccnc32)c1

>  <Cat>
-1

$$$$
>  <Molecule>
CCCc1ccc(OCc2ccc(C(=O)N3CCSCC3)o2)cc1

>  <Cat>
1

$$$$
>  <Molecule>
CCN(CC)CCN(Cc1cc2ccc(C)cc2[nH]c1=O)C(=S)Nc1ccccc1C(=O)OC

>  <Cat>
-1

$$$$
>  <Molecule>
CC1=NN(c2ccccc2)C(=O)/C1=C/c1c(O)n(-c2ccc(F)c(Cl)c2)[nH]c1=O

>  <Cat>
-1

$$$$

QUERY: Lab log entry: Cc1[nH]n(C)c(=O)c1C(=O)c1c(-c2c(Cl)cccc2Cl)noc1C — outcome as called in the assay?
RESULT: -1

QUERY: Next up: CC(C)c1ccccc1NC(=S)NN(Cc1ccccc1)c1ccccc1
RESULT: 1

QUERY: Queued: CN1CCN(Cc2cccc(Oc3ccc(Cl)cc3)c2)CC1
RESULT: -1

QUERY: Query O=[N+]([O-])c1ccc(N2CCN(CCOc3nonc3-c3ccccc3)CC2)c(Cl)c1 next
RESULT: 1

QUERY: Repeat for the following molecule: COc1cc2ccccc2c2c1CCCC2=O
RESULT: -1
